The measurements presented in this section are drawn from PubChem BioAssay.

- TEST_NAME: UWB1.289 ovarian carcinoma cell growth inhibition, synergistic combos for chromothripsis tumors, BGB or cisplatin combos (AID 1671456);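 note: cells exposed to compound for four days; 0% = vehicle DMSO and 100% = killing by high DMSO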
- STATED_CONDITIONS: UWB1.289 ovarian carcinoma cells, measured here: inhibition with BGB combination, at 0.05 µM, stronger effect = higher value
Would you mind telling me the reported inhibition of each entry?
# output: bare number, implied unit %

Query: Fill in: inhibition of "CCOC(=O)Nc1ccc(NCc2ccc(F)cc2)nc1N" is ___
Reply: -16.5

Query: Fill in: inhibition of CC1(C(=O)O)CCC2(C)CCC3(C)C(=CC(=O)C4C5(C)CCC(OC(=O)CCC(=O)O)C(C)(C)C5CCC43C)C2C1 (configuration not stated) is ___
Reply: -24.1

Query: Fill in: inhibition of "N=c1ccn2c(n1)O[C@H]1[C@H](O)[C@@H](CO)O[C@H]12" is ___
Reply: -40.2

Query: Fill in: inhibition of "CCn1nc(C(=O)O)c(=O)c2cc3c(cc21)OCO3" is ___
Reply: -31.4

Query: Fill in: inhibition of "CN1CCN(c2c(F)cc3c(=O)c(C(=O)O)cn(CCF)c3c2F)CC1" is ___
Reply: -0.955

Query: Fill in: inhibition of "O=C(CCCCCCC(=O)Nc1ccccc1)NO" is ___
Reply: -38.8

Query: Fill in: inhibition of COC1C(OC(N)=O)C(O)C(Oc2ccc3c(O)c(NC(=O)c4ccc(O)c(CC=C(C)C)c4)c(=O)oc3c2C)OC1(C)C (configuration not stated) is ___
Reply: -33.1

Query: Fill in: inhibition of "Nc1ncn([C@H]2C[C@H](O)[C@@H](CO)O2)c(=O)n1" is ___
Reply: 5.24

Query: Fill in: inhibition of "O=c1c(O)c(-c2ccc(O)c(O)c2)oc2cc(O)ccc12" is ___
Reply: 1.82

Query: Fill in: inhibition of "CN1C[C@@H]2C[C@H]1CN2c1cc2c(cc1F)c(=O)c(C(=O)O)cn2C1CC1" is ___
Reply: -14.8

Query: Fill in: inhibition of CN(N=O)C(=O)NC1C(O)OC(CO)C(O)C1O (configuration not stated) is ___
Reply: -0.199

Query: Fill in: inhibition of CNC1CCCN(c2c(F)cc3c(=O)c(C(=O)O)cn(C4CC4)c3c2OC)C1 (configuration not stated) is ___
Reply: -34.6

Query: Fill in: inhibition of "CN1CCN(c2c(F)cc3c(=O)c(C(=O)O)cn4c3c2OCN4C)CC1" is ___
Reply: -15.9

Query: Fill in: inhibition of "C[C@@H](CN1CC(=O)NC(=O)C1)N1CC(=O)NC(=O)C1" is ___
Reply: -2.15

Query: Fill in: inhibition of "Cc1ccc2nc(N)[nH]c(=O)c2c1Sc1ccncc1" is ___
Reply: 4.97

Query: Fill in: inhibition of "Nc1ccc2cc3ccc(N)cc3nc2c1" is ___
Reply: -20.6

Query: Fill in: inhibition of "COc1c2ccoc2cc2oc(=O)ccc12" is ___
Reply: -12.4
